# experiment_description: Evaluation of Caco-2 membrane permeability
# Format: in vitro ADME
# condition_context: human, Caco-2; 5 mM lauroyl-L-carnitine in FaSSIF/HBSS pH 6.5 apical; HBSS pH 7.4 4% BSA basal; 180 minutes
assay_metric: Papp A→B at 180 min (×10⁻⁶ cm/s)
Give a bare numeral; the unit ×10⁻⁶ cm/s is implied.

// returns reported Papp A→B at 180 min for input CC[C@H](C)[C@@H]1NC(=O)[C@H](CC(C)C)N(C)C(=O)CC(C(=O)N2CCOCC2)N(C)C(=O)[C@H](C2CCCC2)N(C)C(=O)C2(CCCC2)NC(=O)[C@@H]2CCCN2C(=O)[C@H](CCc2ccc(C(F)(F)F)c(Cl)c2)NC(=O)CN(C)C(=O)[C@H](C2CCCC2)N(C)C(=O)[C@@H]2CCN2C(=O)[C@H](C)NC1=O (single isomer, unassigned) [Compound 10]
0.014
